assay: UV shielding properties: UV spectra in ethanol (absorption maximum, A1%1cm); type: physicochemical; set-up: unit not given here; details: UV spectra in ethanol
Each record here notes measured Absorption maximum λmax.
Provide a numeric answer; units are not to be included.

Here's what some known entries look like.
CCOC(=O)/C(=C\c1ccc(O)c(OC)c1)P(=O)(OCC)OCC [Compound P-21] : 319
CCOC(=O)/C(=C\c1cc(OC)c(O)c(OC)c1)P(=O)(OCC)OCC [Compound P-4] : 322

Lookup result for CCOC(=O)/C(=C\c1ccc(NC(C)=O)cc1)P(=O)(OCC)OCC [Compound P-17] ; measured Absorption maximum λmax: 308

For reference, reported Absorption maximum λmax for CCOC(=O)/C(=C\c1ccc(OC)cc1)P(=O)(OCC)OCC [Compound P-1] stands at 303

For this compound ( CCOP(=O)(OCC)C(=Cc1ccc(OC)cc1)P(=O)(OCC)OCC [Compound P-6] ), measured Absorption maximum λmax is 313

Note to self: Absorption maximum λmax recorded for CCOP(=O)(OCC)C(=Cc1ccc(-c2ccccc2)cc1)P(=O)(OCC)OCC [Compound P-5] was 299

Lab book: Absorption maximum λmax of CCOC(=O)C(=C1c2ccccc2-c2ccccc21)P(=O)(OCC)OCC [Compound P-20] noted as 314

Consider CCOC(=O)/C(=C\c1ccc(/C=C(\C(=O)OCC)P(=O)(OCC)OCC)cc1)P(=O)(OCC)OCC [Compound P-2] . Its measured Absorption maximum λmax is 302
